- Tested on: HeLa Kyoto;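 further: synchronized HeLa Kyoto cells (double thymidine block for G1/S, nocodazole release for mitosis), protein amounts in NP-40 versus SDS lysates quantified by mass spectrometry, three biological replicates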
- method-notes: solubility change mitosis vs G1/S (difference of NP-40 vs SDS log2 ratios) (log2 ratio difference); higher = more soluble in mitosis

seq-text	solubility change mitosis (log2)
MKGSRIELGDVTPHNIKQLKRLNQVIFPVSYNDKFYKDVLEVGELAKLAYFNDIAVGAVCCRVDHSQNQKRLYIMTLGCLAPYRRLGIGTKMLNHVLNICEKDGTFDNIYLHVQISNESAIDFYRKFGFEIIETKKNYYKRIEPADAHVLQKNLKVPSGQNADVQKTDN [NAA50]	-0.0822
MAAVAALQLGLRAAGLGRAPASAAWRSVLRVSPRPGVAWRPSRCGSSAAEASATKAEDDSFLQWVLLLIPVTAFGLGTWQVQRRKWKLNLIAELESRVLAEPVPLPADPMELKNLEYRPVKVRGCFDHSKELYMMPRTMVDPVREAREGGLISSSTQSGAYVVTPFHCTDLGVTILVNRGFVPRKKVNPETRQKGQIEGEVDLIGMVRLTETRQPFVPENNPERNHWHYRDLEAMARITGAEPIFIDANFQSTVPGGPIGGQTRVTLRNEHLQYIVTWYGLSAATSYLWFKKFLRGTPGV [SURF1]	-0.105
MAEPVQEELSVLAAIFCRPHEWEVLSRSETDGTVFRIHTKAEGFMDVDIPLELVFHLPVNYPSCLPGISINSEQLTRAQCVTVKENLLEQAESLLSEPMVHELVLWIQQNLRHILSQPETGSGSEKCTFSTSTTMDDGLWITLLHLDHMRAKTKYVKIVEKWASDLRLTGRLMFMGKIILILLQGDRNNLKEYLILQKTSKVDVDSSGKKCKEKMISVLFETKVQTEHKRFLAFEVKEYSALDELQKEFETAGLKKLFSEFVLALVK [RWDD3]	-0.0953
